Catalogue of compounds with associated IC50
target: human LPA3 (Homo sapiens); construct: The full-length cDNA fragment for human LPA3 was obtained by PCR from the vector; assay: HLPA3 Ca Flux assay (LPA3 calcium flux assay); conditions: CHO cells expressing human LPA3, 10 nM LPA
Sequence (Q9UBY5 whole entry, the tested form may be a part): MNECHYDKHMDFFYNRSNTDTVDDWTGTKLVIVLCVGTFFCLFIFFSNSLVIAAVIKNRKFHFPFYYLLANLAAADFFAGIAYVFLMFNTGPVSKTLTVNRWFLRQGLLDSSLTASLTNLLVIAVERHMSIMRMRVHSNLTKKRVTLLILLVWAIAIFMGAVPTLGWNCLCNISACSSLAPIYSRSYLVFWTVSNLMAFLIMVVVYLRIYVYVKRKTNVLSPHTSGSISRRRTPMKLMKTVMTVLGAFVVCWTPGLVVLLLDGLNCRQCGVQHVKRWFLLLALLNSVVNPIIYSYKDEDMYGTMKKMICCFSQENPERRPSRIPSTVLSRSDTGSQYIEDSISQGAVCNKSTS

# Compound, IC50
rows = [
    ("COc1ccccc1C(C)OC(=O)Nc1c(C)noc1-c1ccc(-c2ccc(CC(=O)O)cc2)cc1 (centres unmarked)", "1000 to 50000 nM"),
]

Let's switch to this compound now.
Task: Retrieve IC50 on human LPA3 (Homo sapiens); query Cc1noc(-c2ccc(-c3cccc(CC(=O)O)c3)cc2)c1NC(=O)OC(C)c1ccccc1Cl (centres unmarked)
Result: 300 to 1000 nM

FYI, the data here is from patent US20110301211A1.
